src = the RNAGym collection of RNA variant scans (doi:10.1002/anie.201605470)

B1: Osa-1-4 twister ribozyme (parent)
chain: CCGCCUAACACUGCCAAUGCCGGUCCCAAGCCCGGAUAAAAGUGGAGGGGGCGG

variants of: B1; assay: self-cleavage, relative activity (ratio to wild type); higher = more cleavage; co-transcriptional
Is self-cleavage at least 0.1? Then criterion met. If not, criterion not met.

* A8C C27U | criterion not met
* A41C C14G | criterion met
* A16G A36U | criterion met
* A16U G45C | criterion not met
* A10C C32U | criterion not met
* C11G G51C | criterion not met
* C9U G35A | criterion met
* A36C A38U | criterion met
* C27G G53A | criterion not met
* A46C C20G | criterion not met
* G35A G42A | criterion met
* C52A G34A | criterion met
* C26U C27U | criterion met
* A36U G23C | criterion not met
* A17C U18A | criterion met
* A7C C32U | criterion not met
* A41U C32U | criterion met
* C15A C27A | criterion met
* C25U G49C | criterion not met
* A38C C31G | criterion not met
* A28C G47A | criterion met
* C14A U24C | criterion not met
* A17C G42U | criterion met
* A46U C26U | criterion not met
* A8G G51C | criterion not met
* A7G G35U | criterion met
* C11G G35U | criterion not met
* G30C U18C | criterion not met
* A10U C9U | criterion not met
* G50A U12C | criterion met
* C11A C9U | criterion met
* G30A U43A | criterion not met
* U18C U37G | criterion met
* U12G U43C | criterion not met
* A38U C26U | criterion met
* A7G G50C | criterion met
* A7G C33U | criterion met
* A41G G53C | criterion not met
* G54C U37C | criterion met
* C20U C27U | criterion met
* A28U G51U | criterion met
* A41C G42U | criterion met
* A36U G19C | criterion met
* A28U A8U | criterion not met
* G53A U37A | criterion met
* A39C G50C | criterion met
* A17C C11U | criterion met
* A41C C11U | criterion met
* G53A | criterion met
* A39G C26A | criterion not met
* A10C C14G | criterion not met
* G19U G54A | criterion met
* G23C G34C | criterion not met
* G30U G51A | criterion not met
* C21G G22A | criterion met
* A10G G49C | criterion not met
* A28G U12G | criterion not met
* C20G G13C | criterion not met
* A46C U24G | criterion not met
* A40C C26G | criterion not met
* G22U G51U | criterion met
* A16C A38C | criterion met
* C26U G22C | criterion not met
* C20U G22C | criterion not met
* A8G G54C | criterion met
* A17G C14G | criterion met
* C15U G22U | criterion met
* A40G C26U | criterion met
* C26A G51U | criterion not met
* A10U U43G | criterion met
* A28C C15U | criterion met
* C9G G44U | criterion met
* G45C U43A | criterion not met
* A46C C32A | criterion not met
* C9G G47C | criterion not met
* C15A U24C | criterion not met
* C33U G13U | criterion not met
* G13U G47C | criterion not met
* A10C G34U | criterion not met
* G54U U37A | criterion met
* C9G G35C | criterion met
* A40C G49U | criterion not met
* A28G C21U | criterion met
* G13A G53U | criterion not met
* U12C U24G | criterion not met
* A46U G48U | criterion not met
* G49C U24A | criterion not met
* G30C U24C | criterion not met
